So I've got a bunch of binders here, and I need their pKi values.
biological target: T1, human BCL-XL (residues 1-210, with 27-81 and 210-233 removed) (human, UniProt Q07817-1 1-210, 27-81 removed, biotinylated for the SPR assays (sites not given)); experiment: fluorescence polarisation; competition: cp2-F/BCL-2 complexes (20/400 nM) or cp3-F/BCL-XL complexes (20/600 nM) treated with unlabelled peptides from 1.0 nM to 30.0 uM; 1x PBS pH 7.4, room temperature, 10 min; Ki calculated from EC50, one-site competitive model; conditions: both partners purified
T1 construct: BCL-XL, human, residues 1-210 with the loop 27-81 removed; source: E. coli BL21 (DE3), purified (Ni-NTA, Superdex 75, RESOURCE Q, Superdex 200)
T1 sequence (Q07817 other isoform, or with tags, fused parts or gaps 27-81 removed | 27-81 removed): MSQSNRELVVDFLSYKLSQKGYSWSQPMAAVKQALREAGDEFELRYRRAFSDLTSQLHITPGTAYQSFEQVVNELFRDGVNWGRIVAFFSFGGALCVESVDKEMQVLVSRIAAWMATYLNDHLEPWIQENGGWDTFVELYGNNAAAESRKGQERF
Positions of bridges follow the written chain, without caps; N, C: chain ends. Primed or numbered codes have the meaning given here. No end group written: not given here. c‑ADT″ = 2-aryl-4,5-dihydrothiazole linker
One number for each entry, as −log10 of the molar value.

BINDER	pKi
CPIRYPWDVEC-NH2 (linker 1-11 via c‑ADT″, cyclic peptide from the CPXRYXWDXXC phage library screened against BCL-XL; source: synthetic peptide) [cp3]	6.48

Switching to the query record.
In: Give the reported pKi for this binder. CPIRYEWDEFC-NH2 (linker 1-11 via c‑ADT″, cyclic peptide from the CPXRYXWDXXC phage library screened against BCL-2; source: synthetic peptide) [cp2]
Out: 6.17
